Origin of measurements: ChEMBL document CHEMBL1133108

experimental_system: GABA-A receptor; anion channel
protocol_details: Displacement of […]-tert-butylbicyclophosphorothionate (TBPS) from Gamma-aminobutyric acid A (GABA-A) receptor of rat brain membranes
Please use Satisfied for IC50 under 400 nM and Not satisfied for everything else, ties included.

molecule | assigned_category
C[C@]12CCC3C(CC[C@H]4C[C@H](O)CC[C@]34C)C1CCCN2C(=O)CO (stereo partly specified) | Satisfied
C[C@]12CC[C@@H](O)C[C@@H]1CC[C@@H]1[C@@H]2CC[C@]2(C)[C@@H](C(=O)CO)CC[C@@H]12 | Satisfied
C[C@@]1(O)CC[C@]2(C)C3CC[C@@]4(C)C(CCCN4C(=O)CO)C3CC[C@H]2C1 (stereo partly specified) | Not satisfied
C[C@]12CCC3C(CC[C@@H]4C[C@H](O)CC[C@]34C)C1CCCN2C(=O)CO (stereo partly specified) | Not satisfied
C[C@]12CCC3C(CC[C@@H]4C[C@H](O)CC[C@]34C)C1CCCN2C(=O)C(F)(F)F (stereo partly specified) | Not satisfied

For CC(=O)N1CCCC2C3CC[C@H]4C[C@H](O)CC[C@]4(C)C3CC[C@@]21C (stereo partly specified) , is the recorded IC50 below the cut-off of 400 nM? Satisfied

Thanks! And C[C@]12CCC3C(CC[C@H]4C[C@H](O)CC[C@]34C)C1CCCN2C(=O)C(F)(F)F (stereo partly specified) ? Not satisfied

Thanks! And CC(=O)N1CCCC2C3CC[C@H]4C[C@](C)(O)CC[C@]4(C)C3CC[C@@]21C (stereo partly specified) ? Not satisfied

Thanks! And CC(=O)[C@H]1CC[C@H]2[C@@H]3CC[C@@H]4C[C@H](O)CC[C@]4(C)[C@H]3CC[C@]12C [ELTANOLONE] ? Satisfied

Thanks! And C[C@]12CC[C@@H](O)C[C@H]1CC[C@@H]1[C@@H]2CC[C@]2(C)[C@@H](C(=O)CO)CC[C@@H]12 ? Satisfied

Thanks! And CC(=O)[C@H]1CC[C@H]2[C@@H]3CC[C@H]4C[C@H](O)CC[C@]4(C)[C@H]3CC[C@]12C [BREXANOLONE] ? Satisfied
